- target.or.system: human GHS-R1a (human, UniProt Q92847 1-366)
- Sequence (Q92847 whole entry): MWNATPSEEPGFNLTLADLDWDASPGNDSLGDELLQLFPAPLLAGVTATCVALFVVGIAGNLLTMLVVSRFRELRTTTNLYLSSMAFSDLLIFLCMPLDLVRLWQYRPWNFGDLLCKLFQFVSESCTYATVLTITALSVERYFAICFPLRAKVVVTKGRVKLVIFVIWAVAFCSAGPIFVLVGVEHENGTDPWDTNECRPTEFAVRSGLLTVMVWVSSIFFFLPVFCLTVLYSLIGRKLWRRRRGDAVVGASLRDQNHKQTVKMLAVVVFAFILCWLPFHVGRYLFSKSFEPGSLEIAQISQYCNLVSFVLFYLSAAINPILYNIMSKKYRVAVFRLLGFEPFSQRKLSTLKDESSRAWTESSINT
- experiment.notes: AlphaScreen or HTRF; Tag-lite HTRF competition (Cisbio) on HEK293T-GHS-R1a cells; Ki calculated from binding curves; the labelled tracer is not named; as in ref. 72; n = 2 assays in triplicate
- test.settings: one partner purified
pKi: −log10 of the molar value. Where no end group is shown, it is not given here. Side-chain parts run from the residue outwards. The star is where a group is joined. PEG4 (disulfide) = PEG4 chain joined to the cysteine by a disulfide bond, carrying benzylguanine; benzylguanine = O6-benzylguanine; Octanoyl = CCCCCCCC(=O)*
Readings of pKi for the listed binders
quantity.kind: pKi

[[record]]
binder = "GSS(Octanoyl)FLSPEHQRVQQRKESKKPPAKLQPRGGCG [ghrelinGGCG]"
reading = 7.71

[[record]]
binder = "GSS(Octanoyl)FLSPEHQRVQQRKESKKPPAKLQPRGGC([PEG4 (disulfide)-benzylguanine])G [GhrelON]"
reading = 8.21


Reference source: paper PMC5832994
